Catalogue of pIC50 values
biological target: human P2X2/3 receptor (Homo sapiens (Human), UniProt P56373+Q9UBL9); test: Inhibitory activity on human P2X2/3 receptor (calcium 6 dye FLIPR assay, agonist α,β-MeATP); format: cell-based; conditions: HEK293-P2X2/3 stably expressing cell line, FLIPR Tetra
Sequence (Q9UBL9 whole entry, one chain of several): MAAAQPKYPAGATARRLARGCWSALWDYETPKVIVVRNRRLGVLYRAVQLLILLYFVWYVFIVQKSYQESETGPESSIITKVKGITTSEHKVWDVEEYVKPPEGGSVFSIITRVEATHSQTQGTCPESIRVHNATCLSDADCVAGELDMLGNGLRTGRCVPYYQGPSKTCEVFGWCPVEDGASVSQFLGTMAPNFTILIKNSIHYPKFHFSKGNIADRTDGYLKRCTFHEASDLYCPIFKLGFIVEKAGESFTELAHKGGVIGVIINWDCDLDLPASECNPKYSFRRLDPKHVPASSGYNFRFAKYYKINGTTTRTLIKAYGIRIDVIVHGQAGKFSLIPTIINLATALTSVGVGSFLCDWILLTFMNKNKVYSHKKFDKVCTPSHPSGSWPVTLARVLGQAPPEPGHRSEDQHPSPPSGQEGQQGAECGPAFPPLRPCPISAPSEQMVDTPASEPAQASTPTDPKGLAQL
pIC50 field: float, defined as -log10 of concentration (mol/L).

Below are worked cases with known answers.
{"columns": ["COMPOUND", "ASSAYED SYSTEM", "MEAS VALUE"],
 "data": [
  ["CC(C)c1cnc(C2CC2)cc1Oc1cnc(N)nc1N", "human P2X2/3 receptor (Homo sapiens (Human), UniProt P56373+Q9UBL9)", 6.23],
  ["CC(C)c1cnc(Cl)cc1Sc1cnc(N)nc1N", "human P2X2/3 receptor (Homo sapiens (Human), UniProt P56373+Q9UBL9)", 6.13],
  ["CC(C)c1cnc(Br)cc1Oc1cnc(N)nc1NCCN1CCOCC1", "human P2X2/3 receptor (Homo sapiens (Human), UniProt P56373+Q9UBL9)", 6.56],
  ["CC(C)c1cnc(Cl)cc1Oc1cnc(N)nc1N", "human P2X2/3 receptor (Homo sapiens (Human), UniProt P56373+Q9UBL9)", 6.47],
  ["CC(C)Nc1nc(N)ncc1Oc1cc(Br)ncc1C(C)C", "human P2X2/3 receptor (Homo sapiens (Human), UniProt P56373+Q9UBL9)", 6.84],
  ["CC(C)c1cnc(C#Cc2ccccn2)cc1Oc1cnc(N)nc1N", "human P2X2/3 receptor (Homo sapiens (Human), UniProt P56373+Q9UBL9)", 6.63],
  ["COc1cc(Oc2cnc(N)nc2N)c(C)cn1", "human P2X2/3 receptor (Homo sapiens (Human), UniProt P56373+Q9UBL9)", 6.01],
  ["CC(C)c1cnc(C#Cc2ccc(N(C)C)cc2)cc1Oc1cnc(N)nc1N", "human P2X2/3 receptor (Homo sapiens (Human), UniProt P56373+Q9UBL9)", 6.95],
  ["CNc1ncc(Oc2cc(Br)ncc2C(C)C)c(N)n1", "human P2X2/3 receptor (Homo sapiens (Human), UniProt P56373+Q9UBL9)", 6.11],
  ["C=Cc1cc(Oc2cnc(N)nc2N)c(C(C)C)cn1", "human P2X2/3 receptor (Homo sapiens (Human), UniProt P56373+Q9UBL9)", 6.74]
]}

Prompt: Report pIC50 for CC(C)c1ncc(Cl)cc1Oc1cnc(N)nc1N [Reference Compound C10, reference compound]
Completion: 5.74

Prompt: Report pIC50 for `CC(C)c1cnc(Br)cc1Oc1cnc(NC(CO)CO)nc1N`
Completion: 6.89

Prompt: Report pIC50 for `CCc1cc(Sc2cnc(N)nc2N)c(C(C)C)cn1`
Completion: 6.63

Prompt: Report pIC50 for `CC(C)c1cnc(Br)cc1Sc1cnc(N)nc1N`
Completion: 6.69

Prompt: Report pIC50 for `CC[C@@H](CO)Nc1nc(N)ncc1Oc1cc(Br)ncc1C(C)C`
Completion: 6.68

Prompt: Report pIC50 for `C#Cc1cc(Oc2cnc(NC(CO)CO)nc2N)c(C(C)C)cn1`
Completion: 6.90

---

Catalogue of pIC50 values
target: human P2X3 receptor (Homo sapiens (Human)); assay: Inhibitory activity on human P2X3 receptor (calcium 6 dye FLIPR assay, agonist α,β-MeATP); details: HEK293-P2X3 stably expressing cell line, FLIPR Tetra
Sequence (P56373 whole entry): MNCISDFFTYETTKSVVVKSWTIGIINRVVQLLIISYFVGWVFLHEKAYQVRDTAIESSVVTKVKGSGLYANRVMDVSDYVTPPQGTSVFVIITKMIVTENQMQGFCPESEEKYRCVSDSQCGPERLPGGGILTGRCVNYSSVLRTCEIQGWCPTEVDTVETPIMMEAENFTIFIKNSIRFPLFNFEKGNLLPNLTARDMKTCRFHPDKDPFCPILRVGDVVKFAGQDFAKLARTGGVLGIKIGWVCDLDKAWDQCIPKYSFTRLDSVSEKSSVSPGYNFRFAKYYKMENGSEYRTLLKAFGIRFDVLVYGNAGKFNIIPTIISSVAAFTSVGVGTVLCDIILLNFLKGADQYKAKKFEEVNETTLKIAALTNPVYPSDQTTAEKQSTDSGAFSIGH
pIC50 field: float, defined as -log10 of concentration (mol/L).

Below are worked cases with known answers.
{"columns": ["RECORD SMILES", "pIC50"],
 "data": [
  ["CC(C)CNc1nc(N)ncc1Oc1cc(Br)ncc1C(C)C", 7.08],
  ["CC(C)c1cnc(NC2CC2)cc1Oc1cnc(N)nc1N", 6.27],
  ["CC(C)c1cnc(-c2ccco2)cc1Oc1cnc(N)nc1N", 6.78],
  ["C=Cc1cnc(OC)cc1Oc1cnc(N)nc1N", 6.53],
  ["CCN(C)c1cc(Oc2cnc(N)nc2N)c(C(C)C)cn1", 6.56],
  ["C#Cc1cc(Oc2cnc(N)nc2N)c(C(C)C)cn1", 7.07]
]}

In the following, a different compound is considered.
Prompt: Report pIC50 for `CSc1cc(Sc2cnc(N)nc2N)c(C(C)C)cn1`
Completion: 6.64
